# Assay System: CYP3A4 (Homo sapiens)
# Sequence (P08684 whole entry): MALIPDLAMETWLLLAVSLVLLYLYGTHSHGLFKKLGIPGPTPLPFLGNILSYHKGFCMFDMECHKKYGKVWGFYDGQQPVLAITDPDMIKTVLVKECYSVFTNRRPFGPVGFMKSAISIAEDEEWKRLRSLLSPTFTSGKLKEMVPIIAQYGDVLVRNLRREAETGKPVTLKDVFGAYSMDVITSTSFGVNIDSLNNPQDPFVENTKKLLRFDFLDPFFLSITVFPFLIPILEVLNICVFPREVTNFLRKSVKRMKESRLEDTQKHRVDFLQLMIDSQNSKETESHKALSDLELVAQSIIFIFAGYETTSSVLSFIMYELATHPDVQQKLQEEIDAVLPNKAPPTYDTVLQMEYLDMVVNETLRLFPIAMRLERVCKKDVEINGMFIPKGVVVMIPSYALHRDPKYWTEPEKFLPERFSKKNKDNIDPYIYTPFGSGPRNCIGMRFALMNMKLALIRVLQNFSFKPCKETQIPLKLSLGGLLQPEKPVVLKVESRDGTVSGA
# Conditions Used: read-out: CYP inhibition; CYP3A4
pIC50: −log10 of the molar value.
Quantity: pIC50

q: Returns the measured pIC50 for the input molecule. Input: Cc1cc(-c2noc(C(F)(F)F)n2)ccc1OCCCc1cc(C(=O)N(C)C)no1 [compound 11526092]
a: < 4.30

====

# Assay System: CYP2D6 (Homo sapiens, UniProt P10635)
# Sequence (P10635 whole entry): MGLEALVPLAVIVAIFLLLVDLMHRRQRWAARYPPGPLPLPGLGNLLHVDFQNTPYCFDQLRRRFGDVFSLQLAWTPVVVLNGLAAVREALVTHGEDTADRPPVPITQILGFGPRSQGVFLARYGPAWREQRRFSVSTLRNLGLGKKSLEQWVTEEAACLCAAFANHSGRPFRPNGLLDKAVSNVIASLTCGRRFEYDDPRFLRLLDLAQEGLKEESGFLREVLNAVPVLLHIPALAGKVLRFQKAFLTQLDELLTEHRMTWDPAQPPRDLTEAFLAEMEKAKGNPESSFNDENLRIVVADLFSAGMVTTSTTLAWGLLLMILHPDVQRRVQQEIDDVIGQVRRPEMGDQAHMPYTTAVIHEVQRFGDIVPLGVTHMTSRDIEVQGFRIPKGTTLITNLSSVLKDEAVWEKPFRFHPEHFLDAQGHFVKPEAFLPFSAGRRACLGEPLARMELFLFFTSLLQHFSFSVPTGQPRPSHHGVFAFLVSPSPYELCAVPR
# Assay Protocol: CYP inhibition, CYP2D6
# Type: in vitro ADME
# Conditions Used: read-out: CYP inhibition
pIC50: −log10 of the molar value.
Quantity: pIC50

q: pIC50 for Cc1cc(-c2noc(C(F)(F)F)n2)ccc1OCCCc1cc(C(=O)N(C)C)no1 ?
a: < 4.30

====

# Assay System: CYP1A2 (Homo sapiens, UniProt P05177)
# Sequence (P05177 whole entry): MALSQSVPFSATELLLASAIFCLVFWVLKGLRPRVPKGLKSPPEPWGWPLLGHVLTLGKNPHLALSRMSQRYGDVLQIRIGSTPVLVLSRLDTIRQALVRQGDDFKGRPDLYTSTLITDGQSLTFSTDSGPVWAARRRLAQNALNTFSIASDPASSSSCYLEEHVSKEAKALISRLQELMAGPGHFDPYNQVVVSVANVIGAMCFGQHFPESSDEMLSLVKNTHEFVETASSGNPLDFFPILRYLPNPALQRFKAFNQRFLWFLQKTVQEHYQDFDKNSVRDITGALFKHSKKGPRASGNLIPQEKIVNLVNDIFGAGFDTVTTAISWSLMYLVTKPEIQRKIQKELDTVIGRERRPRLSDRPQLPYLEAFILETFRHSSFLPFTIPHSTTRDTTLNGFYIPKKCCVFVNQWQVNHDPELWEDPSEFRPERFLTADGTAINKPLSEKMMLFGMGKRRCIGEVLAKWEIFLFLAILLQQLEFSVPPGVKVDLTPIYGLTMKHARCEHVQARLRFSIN
# Assay Protocol: CYP inhibition, CYP1A2
# Assay type: in vitro ADME
# Conditions Used: read-out: CYP inhibition
pIC50: −log10 of the molar value.
Quantity: pIC50

q: I am curious: what pIC50 value has been reported for Cc1cc(-c2noc(C(F)(F)F)n2)ccc1OCCCc1cc(C(=O)N(C)C)no1 [compound 11526092] ?
a: < 4.30

====

# System: MDCK
# Assay Protocol: Cytotoxicity
# Assay type: cell-based
# Conditions Used: read-out: 50% Cytotoxic concentration CC50, line of Influenza H1N1
Quantity: CC50 (µM)
Answers are plain numbers, in µM.

q: Look at this compound and give its reported CC50. Cc1cc(-c2noc(C(F)(F)F)n2)ccc1OCCCc1cc(C(=O)N(C)C)no1
a: 44.8

====

# Test system: ma-EV-D68 US/MO/14-18949 (Mouse adapted)
# Assay Protocol: CPE reduction assay, ma-EV-D68 US/MO/14-18949
# Format: cell-based
# Conditions Used: read-out: 50% Effective concentration EC50, RD
Quantity: pEC50
One number for each entry, as −log10 of the molar value.

q: Return reported pEC50; argument: Cc1cc(-c2noc(C(F)(F)F)n2)ccc1OCCCc1cc(C(=O)N(C)C)no1
a: 7.55

====

# Test system: Vero 76
# Conditions Used: read-out: 50% Cytotoxic concentration CC50; Vero 76, line of Coxsackie B3 HA 201933
Quantity: CC50 (µM)
Numbers only, in µM.

q: Request - read-out CC50 | tested on Vero 76 | molecule Cc1cc(-c2noc(C(F)(F)F)n2)ccc1OCCCc1cc(C(=O)N(C)C)no1 [compound 11526092]
a: 8

====

# Assay System: CYP2C9 (Homo sapiens, UniProt P11712)
# Sequence (P11712 whole entry): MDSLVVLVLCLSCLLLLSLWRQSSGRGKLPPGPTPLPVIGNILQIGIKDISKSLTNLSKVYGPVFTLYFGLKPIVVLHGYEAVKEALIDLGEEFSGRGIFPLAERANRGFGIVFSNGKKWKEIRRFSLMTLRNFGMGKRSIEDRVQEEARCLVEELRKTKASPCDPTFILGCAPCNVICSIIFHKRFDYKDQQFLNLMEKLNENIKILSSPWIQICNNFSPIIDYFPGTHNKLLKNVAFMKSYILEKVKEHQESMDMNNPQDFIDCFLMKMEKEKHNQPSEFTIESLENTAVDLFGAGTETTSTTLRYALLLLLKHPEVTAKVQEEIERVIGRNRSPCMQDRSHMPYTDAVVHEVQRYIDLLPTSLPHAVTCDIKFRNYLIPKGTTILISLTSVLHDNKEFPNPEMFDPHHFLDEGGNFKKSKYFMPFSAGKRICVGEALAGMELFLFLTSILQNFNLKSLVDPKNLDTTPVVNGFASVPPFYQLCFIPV
# Assay Protocol: CYP inhibition, CYP2C9
# Format: in vitro ADME
# Conditions Used: read-out: CYP inhibition
Quantity: IC50 (µM)
Answers are plain numbers, in µM.

q: I would be grateful if you could share the reported IC50 for Cc1cc(-c2noc(C(F)(F)F)n2)ccc1OCCCc1cc(C(=O)N(C)C)no1 .
a: 5

====

# System: Coxsackievirus B3-Woodruff (CVB3)
# Assay Protocol: microbe, parasite or virus in culture
# Conditions Used: B3|CVB3, HeLa, read-out: Inhibitory concentration EC50 against CVB3-Woodruff, HeLa cells, adding drug to virus and then infecting at MOI 1 PFU / cell, ± SEM
Quantity: EC50 (nM)
Give bare numbers, in nM.

q: Reported EC50, compound Cc1cc(CCCOc2c(C)cc(-c3noc(C(F)(F)F)n3)cc2C)on1 [Pleconaril] : ____
a: 45
